Listed below: Selectivity n/i values for each entry.
Tested System: rat nNOS (Rattus norvegicus, UniProt P29476)
Construct: made in house; host or cells: E. coli (plasmid pCWnNOS)
Assay Name: NOS enzyme inhibitory assay (hemoglobin capture), nNOS
Assay type: biochemical
Particulars: Table 1a; Ki(iNOS)/Ki(nNOS)
// return a plain number; no unit text

Some solved entries appear below for comparison.
INSERT INTO assay_data (molecule, quantity_measured, value_observed) VALUES
  ('Cl.Cl.Cl.Nc1cccc(C[C@H]2CN(Cc3ccccc3)C[C@@H]2NCCCO)n1 (racemic) [Compound P-3]', 'Selectivity n/i', 9.19),
  ('Nc1cccc(CC2CNCC2NCC(N)Cc2ccccc2)n1 (racemic) [Compound P-32]', 'Selectivity n/i', 129.09),
  ('Cl.Cl.Cl.Cl.Nc1cccc(CC2CNCC2NCC2CCCN2)n1 (centres unmarked) [Compound P-24]', 'Selectivity n/i', 21.15),
  ('Cc1cc(N)nc(C[C@H]2CNC[C@H]2NCCN)c1.Cl.Cl.Cl.Cl (racemic) [Compound P-46]', 'Selectivity n/i', 58),
  ('Nc1cccc(CC2CNCC2NC2CCN(Cc3ccccc3)C2)n1 (centres unmarked) [Compound P-37]', 'Selectivity n/i', 3.05),
  ('Nc1cccc(CC2CNCC2NCC(N)Cc2ccccc2)n1 (racemic) [Compound P-17]', 'Selectivity n/i', 20.25);

Summary: Cl.Cl.Cl.Nc1cccc(C[C@H]2CNC[C@H]2NCCCc2ccccc2)n1 (racemic) [Compound P-27] , rat nNOS (Rattus norvegicus, UniProt P29476), Selectivity n/i = 52.43

Summary: Cl.Cl.Cl.Cl.NCCN1CC(Cc2cccc(N)n2)C(NCCCc2ccccc2)C1 (racemic) [Compound P-7] , rat nNOS (Rattus norvegicus, UniProt P29476), Selectivity n/i = 109.99

Summary: Cl.Cl.Cl.Nc1cccc(C[C@H]2CN(Cc3ccccc3)C[C@@H]2NCCCc2ccccc2)n1 (racemic) [Compound P-2] , rat nNOS (Rattus norvegicus, UniProt P29476), Selectivity n/i = 4.3

Summary: Cl.Cl.Cl.Cl.Nc1cccc(C[C@H]2CNC[C@H]2NC[C@H]2CCCN2)n1 [Compound P-42] , rat nNOS (Rattus norvegicus, UniProt P29476), Selectivity n/i = 31.97

Summary: Cl.Cl.Cl.Cl.Nc1cccc(C[C@@H]2CNC[C@@H]2NC[C@H]2CCCN2)n1 [Compound P-43] , rat nNOS (Rattus norvegicus, UniProt P29476), Selectivity n/i = 9.22

Summary: Cl.Cl.Nc1cccc(CC2CN(Cc3ccccc3)CC2O)n1 (racemic) [Compound P-1] , rat nNOS (Rattus norvegicus, UniProt P29476), Selectivity n/i = 11.71

Summary: Cl.Cl.Cl.Nc1cccc(CC2CNCC2NCCCc2ccccc2)n1 (racemic) [Compound P-12] , rat nNOS (Rattus norvegicus, UniProt P29476), Selectivity n/i = 10.83

Summary: Cl.Cl.Cl.NCCN1C[C@H](Cc2cccc(N)n2)[C@@H](O)C1 (racemic) [Compound P-6] , rat nNOS (Rattus norvegicus, UniProt P29476), Selectivity n/i = 8.41

Summary: Nc1cccc(CC2CNCC2NC2CCNC2)n1 (racemic) [Compound P-19] , rat nNOS (Rattus norvegicus, UniProt P29476), Selectivity n/i = 12.11

Summary: Nc1cccc(CC2CNCC2NCC(N)Cc2ccccc2)n1 (racemic) [Compound P-31] , rat nNOS (Rattus norvegicus, UniProt P29476), Selectivity n/i = 98.27

Summary: Cl.Cl.Cl.Cl.Nc1cccc(CC2CNCC2NCC2CCCN2)n1 (centres unmarked) [Compound P-40] , rat nNOS (Rattus norvegicus, UniProt P29476), Selectivity n/i = 23.95

====

Listed below: log10 of Ki values for each entry.
Tested System: rat nNOS (Rattus norvegicus, UniProt P29476)
Construct: made in house; host or cells: E. coli (plasmid pCWnNOS)
Assay Name: NOS enzyme inhibitory assay (hemoglobin capture), nNOS
Assay type: biochemical
Particulars: Table 1a; apparent Ki calculated from IC50, Km […]; read-out: calc. Ki nNOS
Would you kindly interpret these values as log10 of Ki expressed in µM?

INSERT INTO assay_data (molecule, tested_system, value_observed) VALUES
  ('Cl.Cl.Cl.Nc1cccc(CC2CN(Cc3ccccc3)CC2NCCCO)n1 (racemic) [Compound P-5]', 'rat nNOS (Rattus norvegicus, UniProt P29476)', 2.48);

Summary: Cl.Cl.Cl.Cl.Nc1cccc(C[C@@H]2CNC[C@@H]2NC[C@H]2CCCN2)n1 [Compound P-43] , rat nNOS (Rattus norvegicus, UniProt P29476), log10 of Ki = 0.66

Summary: Nc1cccc(CC2CNCC2NC2CCN(Cc3ccccc3)C2)n1 (centres unmarked) [Compound P-38] , rat nNOS (Rattus norvegicus, UniProt P29476), log10 of Ki = 0.44

Summary: Cl.Cl.Nc1cccc(CC2CNCC2O)n1 (racemic) [Compound P-11] , rat nNOS (Rattus norvegicus, UniProt P29476), log10 of Ki = 0.84

Summary: Nc1cccc(CC2CNCC2NC2CCNC2)n1 (racemic) [Compound P-19] , rat nNOS (Rattus norvegicus, UniProt P29476), log10 of Ki = 1.32

====

Listed below: Selectivity n/e values for each entry.
Tested System: rat nNOS (Rattus norvegicus)
Construct: made in house; host or cells: E. coli (plasmid pCWnNOS)
Assay Name: NOS enzyme inhibitory assay (hemoglobin capture), nNOS
Type: biochemical
Particulars: Table 1a; Ki(eNOS)/Ki(nNOS)
// return a plain number; no unit text

Some solved entries appear below for comparison.
INSERT INTO measurements (compound, quantity_measured, value_observed) VALUES
  ('Nc1cccc(CC2CNCC2NC2CCN(Cc3ccccc3)C2)n1 (stereo not drawn) [Compound P-39]', 'Selectivity n/e', 4.10),
  ('Nc1cccc(CC2CNCC2NC2CCNC2)n1 (racemic) [Compound P-35]', 'Selectivity n/e', 311.85),
  ('CN(C)CCNC1CNCC1Cc1cccc(N)n1 (racemic) [Compound P-15]', 'Selectivity n/e', 15.41),
  ('Cc1cc(N)nc(C[C@H]2CNC[C@H]2NCCN)c1.Cl.Cl.Cl.Cl (racemic)', 'Selectivity n/e', 2462.2),
  ('Nc1cccc(CC2CNCC2NC2CCN(Cc3ccccc3)C2)n1 (racemic) [Compound P-21]', 'Selectivity n/e', 6.99);

Selectivity n/e in this record for Nc1cccc(CC2CNCC2NC2CCNC2)n1 (racemic) [Compound P-20] : 48.67

Selectivity n/e in this record for Nc1cccc(CC2CNCC2NC2CCNC2)n1 (racemic) [Compound P-19] : 22.00

Selectivity n/e in this record for Nc1cccc(CC2CNCC2NC2CCNC2)n1 (racemic) [Compound P-34] : 192.54

====

Tested System: rat nNOS (Rattus norvegicus, UniProt P29476)
Construct: made in house; host or cells: E. coli (plasmid pCWnNOS)
Assay Name: NOS enzyme inhibitory assay (hemoglobin capture), nNOS
Assay type: biochemical
Particulars: Table 1a; Ki(eNOS)/Ki(nNOS)
Listed below: Selectivity n/e values for each entry.

Some solved entries appear below for comparison.
INSERT INTO results (molecule, quantity_measured, value_observed) VALUES
  ('Nc1cccc(C[C@H]2CNC[C@@H]2NCCNCc2ccccc2)n1 (racemic)', 'Selectivity n/e', '>703.88'),
  ('Nc1cccc(C[C@H]2CNC[C@H]2NCCNCc2ccccc2)n1 (racemic)', 'Selectivity n/e', '>8619.5'),
  ('Nc1cccc(CC2CNCC2NCC(N)Cc2ccccc2)n1 (racemic) [Compound P-17]', 'Selectivity n/e', '>70.64'),
  ('Cl.Cl.Cl.Nc1cccc(C[C@H]2CNC[C@H]2NCCCc2ccccc2)n1 (racemic)', 'Selectivity n/e', 27.9);

Selectivity n/e in this record for Nc1cccc(CC2CNCC2NC2CCN(Cc3ccccc3)C2)n1 (centres unmarked) [Compound P-37] : 2.42

====

Tested System: bovine eNOS (Bos taurus, UniProt P29473)
Construct: made in house; host or cells: E. coli (plasmid Bov-eNOSpCW)
Assay Name: NOS enzyme inhibitory assay (hemoglobin capture), eNOS
Format: biochemical
Particulars: Table 1a; apparent Ki calculated from IC50, Km 1.7 μM; read-out: calc. Ki eNOS
Quantity Measured: Ki (µM)
Quick note: give the figure in µM, leave out the unit.

Some solved entries appear below for comparison.
INSERT INTO measurements (molecule, unit_abbrev, value_observed) VALUES
  ('Cc1cc(N)nc(C[C@H]2CNC[C@H]2NCCN)c1.Cl.Cl.Cl.Cl (racemic)', 'µM', 234),
  ('Nc1cccc(CC2CNCC2NC2CCN(Cc3ccccc3)C2)n1 (racemic) [Compound P-21]', 'µM', 171),
  ('CN(C)CCNC1CNCC1Cc1cccc(N)n1 (racemic) [Compound P-30]', 'µM', 140),
  ('Nc1cccc(CC2CNCC2NC2CCN(Cc3ccccc3)C2)n1 (racemic) [Compound P-22]', 'µM', 109),
  ('Cl.Cl.Nc1cccc(CC2CNCC2O)n1 (racemic)', 'µM', 341),
  ('Cl.Cl.Cl.Nc1cccc(C[C@H]2CNC[C@H]2NCCCc2ccccc2)n1 (racemic)', 'µM', 88.5),
  ('Nc1cccc(CC2CNCC2NC2CCN(Cc3ccccc3)C2)n1 (stereo not shown) [Compound P-36]', 'µM', 108),
  ('Nc1cccc(CC2CNCC2NC2CCNC2)n1 (racemic) [Compound P-20]', 'µM', 625),
  ('CN(C)CCNC1CNCC1Cc1cccc(N)n1 (racemic) [Compound P-15]', 'µM', 242),
  ('Nc1cccc(CC2CNCC2NC2CCN(Cc3ccccc3)C2)n1 (stereo not shown) [Compound P-37]', 'µM', 182);

Ki in this record for Nc1cccc(CC2CNCC2NC2CCN(Cc3ccccc3)C2)n1 (stereo not shown) [Compound P-39] : 92.8

Ki in this record for Nc1cccc(CC2CNCC2NC2CCNC2)n1 (racemic) [Compound P-35] : 424

Values compiled from patent US7994326B2.
